Target: human epidermal growth factor receptor 2 (HER2), membrane-bound on cells (human, UniProt P04626 23-1255)
Assay: cell-based or functional assay
Answer each item with its documented EC50, fab-CypHer5E internalization, AU565.

[
  {
    "binder": "HuMab 127 (antibody, V domains shown) VH: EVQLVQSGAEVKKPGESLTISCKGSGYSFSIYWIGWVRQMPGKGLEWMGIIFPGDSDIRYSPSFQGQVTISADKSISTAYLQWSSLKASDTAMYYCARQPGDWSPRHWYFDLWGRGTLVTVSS VL: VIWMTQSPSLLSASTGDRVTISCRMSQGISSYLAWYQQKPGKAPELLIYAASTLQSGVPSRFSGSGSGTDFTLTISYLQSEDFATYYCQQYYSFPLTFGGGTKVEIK",
    "value-reported": "~0.00968 µg/mL"
  }
]

Field: next binder
Query: Fill in reported EC50, fab-CypHer5E internalization, AU565 for this entry: HuMab 084 (antibody, V domains shown, also called TH1014-084; PC1014-084) VH: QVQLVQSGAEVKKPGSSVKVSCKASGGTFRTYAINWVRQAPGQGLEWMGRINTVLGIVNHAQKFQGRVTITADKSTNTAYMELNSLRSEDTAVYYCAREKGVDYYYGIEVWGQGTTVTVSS VL: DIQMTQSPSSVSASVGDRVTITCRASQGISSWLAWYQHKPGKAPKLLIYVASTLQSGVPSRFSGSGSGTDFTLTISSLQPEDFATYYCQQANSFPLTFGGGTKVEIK
Result: 0.0305 µg/mL
